Biological target: Recombinant human aldo-keto reductase family 1 member C2 (AKR1C2) protein (Homo sapiens)
Construct: made in house; host or cells: Sf-9 insect cells (baculovirus)
Sequence (P52895 1-323): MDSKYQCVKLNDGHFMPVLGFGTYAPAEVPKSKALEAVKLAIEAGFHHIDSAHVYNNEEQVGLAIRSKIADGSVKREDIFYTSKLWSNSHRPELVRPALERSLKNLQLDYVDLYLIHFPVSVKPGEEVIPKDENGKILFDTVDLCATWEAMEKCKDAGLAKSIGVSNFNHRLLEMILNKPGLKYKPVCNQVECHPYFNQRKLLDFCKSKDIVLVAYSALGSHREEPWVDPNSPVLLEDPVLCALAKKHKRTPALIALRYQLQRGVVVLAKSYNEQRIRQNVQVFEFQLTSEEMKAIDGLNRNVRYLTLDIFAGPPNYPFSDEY
Test: Inhibition of the aldo-keto reductase family 1 member C2, 3H-dihydrotestosterone conversion
Type: biochemical
Settings: inhibitor at 10 μM
Hi there, I'd appreciate the recorded inhibition at 10 µM for every entry that follows.

get_value(item= N#CC(=C1CCN(C(=O)N2CCc3[nH]ncc3C2)CC1)c1cccc2[nH]ncc12 , readout=inhibition at 10 µM) returns 9%

Short answer for N#CC(=C1CCN(C(=O)N2CCc3[nH]ncc3C2)CC1)c1ccc(Cl)s1 : inhibition at 10 µM was 43%

Data point: N#CC(=C1CCN(C(=O)N2CCn3ncnc3C2)CC1)c1ccc(C(F)(F)F)cc1 ; inhibition at 10 µM = 4%

Entry N#CC(=C1CCN(C(=O)N2C3CCC2COC3)CC1)c1ccc(F)cc1F — recorded inhibition at 10 µM = 14%

----------
Molecular target: Recombinant human aldo-keto reductase family 1 member C2 (AKR1C2) protein (Homo sapiens, UniProt P52895)
Construct: made in house; host or cells: Sf-9 insect cells (baculovirus)
Sequence (P52895 1-323): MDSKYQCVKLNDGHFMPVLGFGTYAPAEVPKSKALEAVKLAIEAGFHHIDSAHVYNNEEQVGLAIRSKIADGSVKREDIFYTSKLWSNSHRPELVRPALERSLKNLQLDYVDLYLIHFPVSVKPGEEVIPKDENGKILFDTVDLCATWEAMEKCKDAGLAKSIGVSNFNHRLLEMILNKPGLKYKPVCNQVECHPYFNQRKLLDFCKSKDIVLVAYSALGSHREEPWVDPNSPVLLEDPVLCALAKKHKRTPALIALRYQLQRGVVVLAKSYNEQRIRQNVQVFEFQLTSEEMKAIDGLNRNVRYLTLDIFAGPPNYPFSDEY
Assay: Inhibition of the aldo-keto reductase family 1 member C2, 3H-dihydrotestosterone conversion
Assay type: biochemical
Settings: inhibitor at 10 μM
# binarize inhibition at 10 µM: threshold 20% inclusive, high side 1.0, low side 0.0

Q: Does N#CC(=C1CCN(C(=O)N2CCn3nncc3C2)CC1)c1ccc(Cl)cn1 have a reported inhibition at 10 µM of at least 20%?
A: 0.0

Q: Determine whether this compound has inhibition at 10 µM no lower than 20%: N#CC(=C1CCN(C(=O)N2CCc3nocc3C2)CC1)c1cccc2[nH]ncc12
A: 1.0

Q: Could you please find out whether N#CC(=C1CCN(C(=O)N2CCn3nncc3C2)CC1)c1ccc(F)cc1 has inhibition at 10 µM that meets 20% or exceeds it?
A: 0.0

Q: Determine whether this compound has inhibition at 10 µM no lower than 20%: CCN(CC)C(=O)N1CCC(=C(C#N)c2ccc(Cl)cc2)CC1
A: 0.0

Q: Record N#CC(=C1CCN(C(=O)N2CCn3cncc3C2)CC1)c1ccc(Cl)cc1 ; criterion: inhibition at 10 µM no lower than 20%. Met?
A: 0.0

Q: Would you say CCN(CC)C(=O)N1CCC(=C(C#N)c2ccc(Cl)s2)CC1 shows inhibition at 10 µM at minimum 20%?
A: 1.0

Q: Given the entry N#CC(=C1CCN(C(=O)N2CCn3ncnc3C2)CC1)c1ccc(F)cc1 , answer whether its inhibition at 10 µM meets or surpasses 20%.
A: 0.0

Q: In plain terms: is recorded inhibition at 10 µM at least 20% for CCN(CC)C(=O)N1CCC(=C(C#N)c2ccc(C(F)(F)F)cc2)CC1 ?
A: 0.0

Q: Assess whether reported inhibition at 10 µM for N#CC(=C1CCN(C(=O)N2CCc3sccc3C2)CC1)c1ccc(Cl)s1 sits at 20% or higher.
A: 0.0

Q: Identify whether the reported inhibition at 10 µM of the following compound is 20% or greater: COC1CCN(C(=O)N2CCC(=C(C#N)c3ccc(F)cc3F)CC2)CC1
A: 1.0

Q: Is the recorded value of inhibition at 10 µM equal to or greater than 20% for this compound? CC(=O)N1CCN(C(=O)N2CCC(=C(C#N)c3ccc(Cl)cc3)CC2)CC1
A: 0.0

Q: Could you tell me if the measured inhibition at 10 µM of COC1CCN(C(=O)N2CCC(=C(C#N)c3ccc(Cl)s3)CC2)CC1 reaches 20% or more?
A: 0.0

Q: In plain terms: is recorded inhibition at 10 µM at least 20% for N#CC(=C1CCN(C(=O)N2CC(C#N)C2)CC1)c1ccc(F)cc1 ?
A: 0.0

Q: Is reported inhibition at 10 µM greater than or equal to 20% here: N#CC(=C1CCN(C(=O)N2CCC(S(N)(=O)=O)CC2)CC1)c1ccc(Cl)cc1
A: 0.0

Q: # check: inhibition at 10 µM of CN(C(=O)N1CCC(=C(C#N)c2ccc(Cl)cc2)CC1)C1COC1 is greater than or equal to 20%
A: 0.0

Q: hey, is inhibition at 10 µM for this one >= 20%? N#CC(=C1CCN(C(=O)N2CCc3nocc3C2)CC1)c1ccc(Cl)s1
A: 1.0

Q: Is reported inhibition at 10 µM greater than or equal to 20% here: N#CC(=C1CCN(C(=O)N2CCC(CO)CC2)CC1)c1ccc(F)cc1F
A: 0.0

Q: Check the entry N#CC(=C1CCN(C(=O)N2CCc3[nH]ncc3C2)CC1)c1ccc(Cl)cc1 : does inhibition at 10 µM equal or exceed 20%?
A: 0.0

----------
target: Recombinant human aldo-keto reductase family 1 member C2 (AKR1C2) protein (Homo sapiens, UniProt P52895); construct: made in house; host or cells: Sf-9 insect cells (baculovirus); assay: Inhibition of the aldo-keto reductase family 1 member C2, 3H-dihydrotestosterone conversion; format: biochemical; details: inhibitor at 10 μM
experimentalReadout: inhibition at 10 µM (%)
Give the number; % is assumed, so skip it.

Entry N#CC(=C1CCN(C(=O)N2CCC(CO)CC2)CC1)c1ccc(C(F)(F)F)cc1 — recorded inhibition at 10 µM = 6

Given item N#CC(=C1CCN(C(=O)N2CCOCC2)CC1)c1ccc(F)cc1 , the value recorded as its inhibition at 10 µM is 5

Kindly note the recorded inhibition at 10 µM for COC1CCN(C(=O)N2CCC(=C(C#N)c3cccc4[nH]ncc34)CC2)CC1 , which is 5

For reference, reported inhibition at 10 µM for COC1CCN(C(=O)N2CCC(=C(C#N)c3ccc(Cl)cc3)CC2)CC1 stands at 6

Sample N#CC(=C1CCN(C(=O)N2CC[C@H](O)C2)CC1)c1ccc(F)cc1 ; inhibition at 10 µM observed: 4

N#CC(=C1CCN(C(=O)N2CCC(C(F)(F)F)CC2)CC1)c1cccc2[nH]ncc12 has a reported inhibition at 10 µM of 1

inhibition at 10 µM reported for this compound N#CC(=C1CCN(C(=O)N2CCc3sccc3C2)CC1)c1ccc(OC(F)(F)F)cc1 : 7

The recorded inhibition at 10 µM for entry N#CC(=C1CCN(C(=O)N2CCC(S(N)(=O)=O)CC2)CC1)c1cccc(Cl)c1 equals 16

GET /value?item= N#CC(=C1CCN(C(=O)N2CCC(O)CC2)CC1)c1ccc(C(F)(F)F)cc1 &field=inhibition at 10 µM returns -6

Consider N#CC(=C1CCN(C(=O)N2CCc3[nH]ncc3C2)CC1)c1ccc(Cl)cn1 . Its measured inhibition at 10 µM is 6

The compound N#CC(=C1CCN(C(=O)N2CCCCC2)CC1)c1ccc(F)cc1 showed inhibition at 10 µM equal to 18

Input N#CC(=C1CCN(C(=O)N2CCn3cncc3C2)CC1)c1cccc2cn[nH]c12 . Output inhibition at 10 µM: 9

get_value(item= N#CC(=C1CCN(C(=O)N2CC(C#N)C2)CC1)c1ccc(F)c(F)c1 , readout=inhibition at 10 µM) returns 10

Briefly, inhibition at 10 µM measured for CCN(CC)C(=O)N1CCC(=C(C#N)c2ccc(F)cc2)CC1 : 15

Quick note, inhibition at 10 µM for N#CC(=C1CCN(C(=O)N2CCc3nocc3C2)CC1)c1ccc(F)c(F)c1 landed at 17

The compound identified as N#CC(=C1CCN(C(=O)N2CCC(CCO)CC2)CC1)c1ccc(Cl)cc1 registered its inhibition at 10 µM at 8

response.value for N#CC(=C1CCN(C(=O)N2CCc3nocc3C2)CC1)c1ccc(OC(F)(F)F)cc1 (field: inhibition at 10 µM) = 14

Entry under test: N#CC(=C1CCN(C(=O)N2CCC(S(N)(=O)=O)CC2)CC1)c1ccc(C(F)(F)F)cc1 . Its inhibition at 10 µM was 6

Note to self: inhibition at 10 µM recorded for N#CC(=C1CCN(C(=O)N2CCC(CO)CC2)CC1)c1cccc2[nH]ncc12 was 6
